The compounds listed here are annotated with their melting point.

Some compounds with known melting point results, for comparison:
[
  {
    "Compound": "CCNC(=O)N[N+]1(CCCNC(=O)CCc2nc3nc(N4CC(C)OC(C)C4)ccc3s2)CCCC1c1ccc(Cl)c(Cl)c1.Cl (stereo not shown)",
    "melting point": "115 to 118 °C"
  },
  {
    "Compound": "O=C(CCc1nc2nc(N3CCCC3)ccc2s1)NCCC[N+]1([O-])CCCC1c1ccc(Cl)c(Cl)c1 (stereo not shown)",
    "melting point": "185 to 188 °C"
  },
  {
    "Compound": "Cc1ccc2nc(CCC(=O)NCCCN3CCCC3c3ccc(Cl)c(Cl)c3)sc2c1 (stereo not shown)",
    "melting point": "76 to 79 °C"
  },
  {
    "Compound": "O=C(CCc1nc2ccc(N3CCCCC3)nc2s1)NCCCN1CCCC1c1ccc(Cl)c(Cl)c1 (stereo not shown)",
    "melting point": "93 to 95 °C"
  },
  {
    "Compound": "CNc1ccc2nc(CCC(=O)NCCCN3CCCC3c3ccc(Cl)c(Cl)c3)sc2n1 (stereo not shown)",
    "melting point": "119 to 121 °C"
  }
]

query: So what's the measured melting point for this one? O=C(CCc1nc2ncc(N3CCCCC3)nc2s1)NCCCN1CCCC1c1ccc(Cl)c(Cl)c1 (stereo not shown)
result: 105 °C

query: Param item = O=C(CCc1nc2ccc(N3CCCCC3)nc2s1)NCCC[N+]1([O-])CCCC1c1ccc(Cl)c(Cl)c1 (stereo not shown) ; retrieve measured melting point.
result: 185 to 187 °C

query: Field request: melting point | item: O=C(CCc1nc2ccc(N3CCOCC3)nc2s1)NCCCN1CCCC1c1ccc(Cl)c(Cl)c1 (stereo not shown)
result: 111 to 112 °C

query: Please look up its melting point: O=C(CCc1nc2ccc(N3CCCC3)nc2s1)NCCCN1CCCC1c1ccc(Cl)c(Cl)c1 (stereo not shown)
result: 137 to 138 °C

query: Find the recorded melting point belonging to Cc1ccc2nc(CCC(=O)NCCCN3CCCC3c3ccc(Cl)c(Cl)c3)sc2n1 (stereo not shown) and report it.
result: 125 to 130 °C

====

# Assayed target: hCCR3 (Homo sapiens)
# Construct: expressed in transfected cells; host or cells: K562 and RBL2H3 cells
# Sequence (P51677 whole entry): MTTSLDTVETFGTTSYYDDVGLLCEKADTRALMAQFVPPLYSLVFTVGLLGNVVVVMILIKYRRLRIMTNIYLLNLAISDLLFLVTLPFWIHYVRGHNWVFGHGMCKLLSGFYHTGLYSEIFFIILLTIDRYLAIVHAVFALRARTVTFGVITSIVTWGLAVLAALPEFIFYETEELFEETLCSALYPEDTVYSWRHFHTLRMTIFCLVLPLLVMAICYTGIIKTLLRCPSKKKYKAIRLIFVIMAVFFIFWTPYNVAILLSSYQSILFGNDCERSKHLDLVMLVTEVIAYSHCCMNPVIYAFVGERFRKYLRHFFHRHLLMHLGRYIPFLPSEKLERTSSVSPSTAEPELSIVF
# Measurement notes: Ca2+ mobilization in hCCR3-RBL and hCCR3 K562 cells (test B)
# Type: cell-based
// reported IC50 for each item listed
// return numeric value only (unit: nM, not printed)

Here's what some known entries look like.
[
  {
    "Compound": "CNc1ccc2nc(CCC(=O)NCCCN3CCCC3c3ccc(Cl)c(Cl)c3)sc2n1 (stereo not shown)",
    "IC50 [nM]": 18
  },
  {
    "Compound": "CC1CN(c2ccc3nc(CCC(=O)NCCCN4CCCC4c4ccc(Cl)c(Cl)c4)sc3n2)CC(C)O1 (stereo not shown)",
    "IC50 [nM]": 1.6
  },
  {
    "Compound": "O=C(CCc1nc2ccc(N3CCCCC3)nc2s1)NCCC[N+]1([O-])CCCC1c1ccc(Cl)c(Cl)c1 (stereo not shown)",
    "IC50 [nM]": 13
  },
  {
    "Compound": "O=C(CCc1nc2ccc(N3CCOCC3)nc2s1)NCCCN1CCCC1c1ccc(Cl)c(Cl)c1 (stereo not shown)",
    "IC50 [nM]": 0.9
  }
]

query: Would you kindly share the measured IC50 for O=C(CCc1nc2ncc(N3CCCCC3)nc2s1)NCCCN1CCCC1c1ccc(Cl)c(Cl)c1 (stereo not shown) ?
result: 3.9

query: Quick one: IC50 of O=C(CCc1nc2ccc(N3CCCCC3)nc2s1)NCCCN1CCCC1c1ccc(Cl)c(Cl)c1 (stereo not shown) ?
result: 3.4

query: What measured IC50 goes with O=C(CCc1nc2ccc(N3CCCC3)nc2s1)NCCCN1CCCC1c1ccc(Cl)c(Cl)c1 (stereo not shown) ?
result: 5
